Assay: Bioavailability in rat
Type: ADME, organism-based
Details: in vivo, read-out: Bioavailabiility
testReadout: bioavailability (%)
Your answer is read as %, so omit the unit and give the number.

Asked: Look up bioavailability: CC(C)c1ccc(S(=O)(=O)Nc2ccc(CCNC[C@H](O)COc3ccc(N)nc3)cc2)cc1
Given back: 4

###

Target: Neuropeptide Y receptor type 1 (Homo sapiens)
Sequence (P25929 whole entry): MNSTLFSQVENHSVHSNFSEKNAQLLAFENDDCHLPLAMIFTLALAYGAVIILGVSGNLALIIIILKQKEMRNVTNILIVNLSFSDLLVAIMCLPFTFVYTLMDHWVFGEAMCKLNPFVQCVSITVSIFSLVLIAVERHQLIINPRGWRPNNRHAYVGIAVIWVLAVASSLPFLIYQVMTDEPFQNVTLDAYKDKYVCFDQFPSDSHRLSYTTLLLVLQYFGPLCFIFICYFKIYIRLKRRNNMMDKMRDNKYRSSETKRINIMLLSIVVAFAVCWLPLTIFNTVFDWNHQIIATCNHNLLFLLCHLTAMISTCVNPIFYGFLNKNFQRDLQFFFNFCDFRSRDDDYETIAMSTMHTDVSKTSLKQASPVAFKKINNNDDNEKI
testReadout: pIC50
Worth noting: pIC50 values are minus log10 of concentrations stated in mol/L.

Asked: Look up pIC50: CC[C@H]1CC[C@@](c2cccc(OCOC)c2)(N2CCN(c3ccccc3)CC2)CC1
Given back: 7.41

###

Molecular target: Neuropeptide Y receptor type 1 (Rattus norvegicus)
Sequence (P21555 whole entry): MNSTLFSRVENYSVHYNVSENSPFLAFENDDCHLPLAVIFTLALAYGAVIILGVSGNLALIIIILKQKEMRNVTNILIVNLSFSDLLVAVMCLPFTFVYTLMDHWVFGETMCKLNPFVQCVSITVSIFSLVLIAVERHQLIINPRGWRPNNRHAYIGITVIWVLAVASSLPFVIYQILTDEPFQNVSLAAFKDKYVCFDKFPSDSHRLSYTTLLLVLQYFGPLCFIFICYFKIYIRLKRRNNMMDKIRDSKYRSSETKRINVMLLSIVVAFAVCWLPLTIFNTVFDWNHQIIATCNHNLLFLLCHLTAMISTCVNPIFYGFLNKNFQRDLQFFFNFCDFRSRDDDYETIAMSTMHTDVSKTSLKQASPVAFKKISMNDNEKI
Assay: The compound was tested for the binding affinity against Neuropeptide Y receptor type 1 in rat
testReadout: IC50 (nM)
Your answer is read as nM, so omit the unit and give the number.

Asked: Look up IC50: Clc1ccc(OCc2nc3c(OCCCN4CCCCC4)cccc3n2CCCC2CCCNC2)cc1 (stereo unspecified)
Given back: 1.7
